# TEST PROTOCOL: Terminal half life in beagle dog at 10 mg/kg, iv
# Type: ADME, organism-based, Canis lupus familiaris
# Set-up: dose 10 mg/kg, route intravenous
# APPLIED CONDITIONS: in vivo, read-out: beta t1/2 (converted)
METRIC NAME: half-life (h)
# output: bare number, implied unit h

Incoming: Quick one: half-life for C[C@@H]1C[C@H]2[C@@H]3CCC4=CC(=O)C=C[C@]4(C)C3=CC[C@]2(C)[C@@]1(O)C(=O)CO [VAMOROLONE] ?
Outgoing: 5.42

----------
Catalogue of Activity values
# MEASURED ON: Glucocorticoid receptor (Mus musculus)
# Sequence (whole entry): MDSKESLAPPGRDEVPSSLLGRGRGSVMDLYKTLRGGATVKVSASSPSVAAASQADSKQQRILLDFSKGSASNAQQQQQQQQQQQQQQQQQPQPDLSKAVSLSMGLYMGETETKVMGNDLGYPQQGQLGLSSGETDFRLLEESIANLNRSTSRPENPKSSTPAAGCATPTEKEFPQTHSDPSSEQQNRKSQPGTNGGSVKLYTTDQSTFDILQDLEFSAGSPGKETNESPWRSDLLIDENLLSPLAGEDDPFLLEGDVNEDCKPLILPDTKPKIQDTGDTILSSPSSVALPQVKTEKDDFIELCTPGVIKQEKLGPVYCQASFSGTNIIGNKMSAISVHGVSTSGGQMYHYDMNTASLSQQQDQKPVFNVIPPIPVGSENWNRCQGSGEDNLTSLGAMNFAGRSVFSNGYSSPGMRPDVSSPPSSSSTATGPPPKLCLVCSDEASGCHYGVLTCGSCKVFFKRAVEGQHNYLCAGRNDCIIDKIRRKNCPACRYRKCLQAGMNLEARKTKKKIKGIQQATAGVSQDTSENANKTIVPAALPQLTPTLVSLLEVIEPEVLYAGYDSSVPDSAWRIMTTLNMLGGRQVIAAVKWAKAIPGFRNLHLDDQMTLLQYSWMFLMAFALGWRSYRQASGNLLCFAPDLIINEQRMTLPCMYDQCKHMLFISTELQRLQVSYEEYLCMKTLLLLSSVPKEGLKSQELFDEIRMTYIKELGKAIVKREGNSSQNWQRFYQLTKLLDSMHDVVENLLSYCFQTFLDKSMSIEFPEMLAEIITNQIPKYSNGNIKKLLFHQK
# TEST PROTOCOL: Induction of glucocorticoid receptor nuclear translocation in mouse C2C12 cells at 1 x 10^-5 to 1.69 x 10^-10 M by chemiluminescence assay relative to control
# Assay type: cell-based
# output: bare number, implied unit %

smiles_string=CCCC[C@@H]1C[C@H]2[C@@H]3CCC4=CC(=O)CC[C@]4(C)C3=CC[C@]2(C)[C@H]1C(=O)CO metric_name=Activity test_value=8.5
smiles_string=C[C@]12C=CC(=O)C=C1CC[C@@H]1C2=CC[C@@]2(C)[C@H]1CC[C@]2(O)C(=O)CO metric_name=Activity test_value=57.6
smiles_string=CCCC[C@@H]1C[C@H]2[C@@H]3CCC4=CC(=O)C=C[C@]4(C)C3=CC[C@]2(C)[C@H]1C(=O)CO metric_name=Activity test_value=6.9
smiles_string=CCCN(CCC)CC(=O)[C@@]1(O)CC[C@H]2[C@@H]3CCC4=CC(=O)CC[C@]4(C)C3=CC[C@@]21C metric_name=Activity test_value=21.8
smiles_string=CC(=O)OCC(=O)[C@H]1[C@H](C)C[C@H]2[C@@H]3CCC4=CC(=O)C=C[C@]4(C)C3=CC[C@@]21C metric_name=Activity test_value=48.8
smiles_string=CC(=O)OCC(=O)[C@@]1(O)CC[C@H]2[C@@H]3CCC4=CC(=O)CC[C@]4(C)C3=CC[C@@]21C metric_name=Activity test_value=51.5

Turning now to a further record.
Incoming: Look up Activity with Glucocorticoid receptor (Mus musculus) for this molecule: C[C@@H]1C[C@H]2[C@@H]3CCC4=CC(=O)CC[C@]4(C)C3=CC[C@]2(C)[C@H]1C(=O)CN1CCOCC1
Outgoing: 22.7
